This listing pairs compounds with measured pIC50.
subject.of.test: UniProt Q9NWZ3
measurement.protocol: IRAK4 Biochemical HTRF Kinase Assay
assay.context: Table 2, CRBN-targeting compounds; read-out: IRAK4 biochemical IC50
Sequence (Q9NWZ3 whole entry, species assumed): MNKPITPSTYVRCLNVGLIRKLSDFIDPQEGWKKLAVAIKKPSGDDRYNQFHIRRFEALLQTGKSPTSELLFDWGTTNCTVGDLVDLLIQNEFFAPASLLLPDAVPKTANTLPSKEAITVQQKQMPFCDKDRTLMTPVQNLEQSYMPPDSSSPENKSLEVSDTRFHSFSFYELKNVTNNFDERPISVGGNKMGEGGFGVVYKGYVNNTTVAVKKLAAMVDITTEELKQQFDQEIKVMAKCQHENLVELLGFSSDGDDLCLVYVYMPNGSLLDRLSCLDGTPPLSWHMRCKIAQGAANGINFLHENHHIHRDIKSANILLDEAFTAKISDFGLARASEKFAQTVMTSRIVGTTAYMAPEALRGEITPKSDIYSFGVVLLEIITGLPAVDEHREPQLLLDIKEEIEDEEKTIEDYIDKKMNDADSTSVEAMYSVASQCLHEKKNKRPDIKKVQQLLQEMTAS
Quick note: pIC50 values are minus log10 of concentrations in mol/L.

Sample records with pIC50:
compound | data.value
CC(C)Nc1cc(-c2ccc3cc(C#N)cnn23)ncc1-c1nnc(N2CCN(C(=O)C3CCN(Cc4ccc5c(c4)C(=O)N(C4CCC(=O)NC4=O)C5=O)CC3)CC2)s1 (stereo not drawn) | 9.30
NC(=O)c1nn(-c2ccc(C(=O)NCCOCCOCCNc3cccc4c3C(=O)N(C3CCC(=O)NC3=O)C4=O)cc2)cc1NC(=O)c1coc(-c2ccnc(NCC(F)(F)F)c2)n1 (stereo not drawn) [Comparative Compound a2, reference compound] | 8.92

# input Let me know recorded pIC50 for CC(C)Nc1cc(-c2ccc3cc(C#N)cnn23)ncc1-c1nnc(N2CCN(C(=O)C3CCN(CC4CCN(c5ccc(-c6nn(C7CCC(=O)NC7=O)c(=O)n6C)cc5)CC4)CC3)CC2)s1 (stereo not drawn) , thanks.
# output 9.22

----------
subject.of.test: IRAK4 (Homo sapiens (Human), UniProt Q9NWZ3)
measurement.protocol: IRAK4 Biochemical HTRF Kinase Assay
assay.context: Table 5; multiple runs; read-out: IRAK4 HTRF biochemical: IC50
Measured IC50 values are reported for all entries that follow.
# unit: nM | format: bare number

molecule | IC50 / nM
CNc1cc(-c2ccc3cc(C#N)cnn23)ncc1-c1nnc(N2CCN(C[C@H]3CCN(c4ccc5c(c4)n(C)c(=O)n5C4CCC(=O)NC4=O)C3)CC2)s1 (stereo partly drawn) | 1.6
CNc1cc(-c2ccc3cc(C#N)cnn23)ncc1-c1nnc(C2CCC(NC(=O)Cn3ccc(C(=O)N[C@H](C(=O)N4C[C@H](O)C[C@H]4C(=O)N[C@@H](C)c4ccc(-c5scnc5C)cc4)C(C)(C)C)n3)CC2)s1 (stereo partly drawn) | 1.7
CNc1cc(-c2ccc3cc(C#N)cnn23)ncc1-c1nnc(C23CCC(NC(=O)CCOCCOCCOCCNc4cccc5c4C(=O)N(C4CCC(=O)NC4=O)C5=O)(CC2)CC3)s1 (stereo not drawn) | 0.7
CNc1cc(-c2ccc3cc(C#N)cnn23)ncc1-c1nnc(C23CCC(NC(=O)C4CN(C5CCN(c6ccc7c(c6)C(=O)N(C6CCC(=O)NC6=O)C7=O)CC5)C4)(CC2)CC3)s1 (stereo not drawn) | 1
CNc1cc(-c2ccc3cc(C#N)cnn23)ncc1-c1nnc(C23CCC(NC(=O)CCOCCC(=O)N[C@H](C(=O)N4C[C@H](O)C[C@H]4C(=O)NCc4ccc(-c5scnc5C)cc4)C(C)(C)C)(CC2)CC3)s1 | 1.2

Proceeding to the next molecule to report its IC50.
# input Return the recorded IC50 value; entry: "Cc1ncsc1-c1ccc([C@H](C)NC(=O)[C@@H]2C[C@@H](O)CN2C(=O)[C@@H](NC(=O)CCCCCCCCCC(=O)N2CCN(c3nnc(-c4cnc(-c5ccc6cc(C#N)cnn56)cc4NC(C)C)s3)CC2)C(C)(C)C)cc1"
# output 10.4

----------
subject.of.test: IRAK4 (Homo sapiens (Human), UniProt Q9NWZ3)
measurement.protocol: IRAK4 Degradation HiBiT Assay
assay.context: Jurkat, read-out: Cellular IRAK4 HiBiT: Dmax, Table 5; multiple runs; HiBiT-tagged Jurkat cells, 4 hrs
Sequence (Q9NWZ3 whole entry): as the sequence (Q9NWZ3 whole entry, species assumed) above
endpoint.label: Dmax
State the value, then name its unit.

compound | data.value
CNc1cc(-c2ccc3cc(C#N)cnn23)ncc1-c1nnc(C23CCC(NC(=O)[C@H]4CC[C@H]4C(=O)N[C@H](C(=O)N4C[C@H](O)C[C@H]4C(=O)N[C@@H](C)c4ccc(-c5scnc5C)cc4)C(C)(C)C)(CC2)CC3)s1 (mixture of isomers) | 89%
CNc1cc(-c2ccc3cc(C#N)cnn23)ncc1-c1nnc(C23CCC(NC(=O)[C@H]4C[C@@H](OCCNc5cccc6c5C(=O)N(C5CCC(=O)NC5=O)C6=O)C4)(CC2)CC3)s1 (some centres unmarked) | 64%
CC(C)Nc1cc(-c2ccc3cc(C#N)cnn23)ncc1-c1nnc(N2CCN(C3CCN(C(=O)Cc4ccc5c(c4)CN(C4CCC(=O)NC4=O)C5=O)CC3)CC2)s1 (centres unmarked) | 111%
CNc1cc(-c2ccc3cc(C#N)cnn23)ncc1-c1nnc(C23CCC(NC(=O)CCCCCC(=O)N[C@H](C(=O)N4C[C@H](O)C[C@H]4C(=O)N[C@@H](C)c4ccc(-c5scnc5C)cc4)C(C)(C)C)(CC2)CC3)s1 | 109%

# input Quick one: give measured Dmax for "CNc1cc(-c2ccc3cc(C#N)cnn23)ncc1-c1nnc([C@H]2CC[C@H](NC(=O)CCCCCC(=O)N[C@H](C(=O)N3C[C@H](O)C[C@H]3C(=O)N[C@@H](C)c3ccc(-c4scnc4C)cc3)C(C)(C)C)CC2)s1"
# output 111%

# input Quote Dmax reported for CNc1cc(-c2ccc3cc(C#N)cnn23)ncc1-c1nnc(N2CCC(C(=O)N3CCN(Cc4ccc5c(c4)C(=O)N(C4CCC(=O)NC4=O)C5=O)CC3)CC2)s1 (centres unmarked) please.
# output 104%

----------
subject.of.test: UniProt:Q9NWZ3
measurement.protocol: IRAK4 Degradation HTRF Assay
Assay type: cell-based
assay.context: wild-type Jurkat cells, 4 hrs
Quick reference: Dmax of the listed items.

Here's what some known entries look like.
compound | subject.of.test | Dmax
CC(C)Nc1cc(-c2ccc3cc(C#N)cnn23)ncc1-c1nnc(N2CCN(C(=O)C3CCN(Cc4ccc5c(c4)C(=O)N(C4CCC(=O)NC4=O)C5=O)CC3)CC2)s1 (stereo not drawn) | UniProt:Q9NWZ3 | > 100%
Cc1ncsc1-c1ccc(CNC(=O)[C@@H]2C[C@@H](O)CN2C(=O)[C@@H](NC(=O)C2(F)CC2)C(C)(C)C)c(OCCOCCC(=O)N2CCN(c3nnc(-c4cnc(-c5ccc6cc(C#N)cnn56)cc4NC(C)C)s3)CC2)c1 | UniProt:Q9NWZ3 | > 100%

Then there is this compound:
# input Give Dmax for CC(C)Nc1cc(-c2ccc3cc(C#N)cnn23)ncc1-c1nnc(N2CCN(C(=O)C3CCN(CC4CCN(c5ccc(-c6nn(C7CCC(=O)NC7=O)c(=O)n6C)cc5)CC4)CC3)CC2)s1 (stereo not drawn)
# output > 100%

----------
subject.of.test: IRAK4 (Homo sapiens (Human))
measurement.protocol: IRAK4 Biochemical HTRF Kinase Assay
assay.context: Table 5; multiple runs; read-out: IRAK4 HTRF biochemical: IC50
endpoint.label: pIC50
Here pIC50 is given on a logarithmic scale as minus log10 of the concentration in mol/L.

Consider the reported pIC50 for these molecules:
molecule | pIC50
CN[C@@H](C)C(=O)N[C@H](C(=O)N1C[C@@H](NC(=O)CCCCCCC(=O)N2CCN(c3nnc(-c4cnc(-c5ccc6cc(C#N)cnn56)cc4NC(C)C)s3)CC2)C[C@H]1C(=O)N[C@@H]1CCCc2ccccc21)C1CCCCC1 [Example 52] | 8.72
CC(C)Nc1cc(-c2ccc3cc(C#N)cnn23)ncc1-c1nnc(N2CCN(C(=O)C3CCN(C[C@H]4CCN(c5ccc6c(c5)C(=O)N(C5CCC(=O)NC5=O)C6=O)C4)CC3)CC2)s1 (some centres unmarked) [Example 12] | 8.92
CNc1cc(-c2ccc3cc(C#N)cnn23)ncc1-c1nnc([C@H]2CC[C@H](N(C)C(=O)CCN3CCN(c4ccc5c(c4)C(=O)N(C4CCC(=O)NC4=O)C5=O)CC3)CC2)s1 (some centres unmarked) [Example 188] | 9.30
CC(C)Nc1cc(-c2ccc3cc(C#N)cnn23)ncc1-c1nnc(N2CCC3(CCN(C(=O)CNc4cccc5c4C(=O)N(C4CCC(=O)NC4=O)C5=O)CC3)CC2)s1 (centres unmarked) [Example 82] | 8.51

--- query ---
# input Quickly give me recorded pIC50 for CNc1cc(-c2ccc3cc(C#N)cnn23)ncc1-c1nnc([C@H]2CC[C@H](NC(=O)CCC(=O)N[C@H](C(=O)N3C[C@H](O)C[C@H]3C(=O)N[C@@H](C)c3ccc(-c4scnc4C)cc3)C(C)(C)C)CC2)s1 [Example 56]
# output 8.82

----------
subject.of.test: UniProt Q9NWZ3
measurement.protocol: IRAK4 Degradation HiBiT Assay
assay.context: Jurkat, read-out: Cellular IRAK4 HiBiT: Dmax, Table 4; HiBiT-tagged Jurkat cells, 4 hrs
Quick list: Dmax per entry.
Express the result in % but write the number alone.

compound | data.value
Cc1ncsc1-c1ccc(CNC(=O)[C@@H]2C[C@@H](O)CN2C(=O)C(NC(=O)[C@H]2CC[C@H](CN3CCN(c4nnc(-c5cnc(-c6ccc7cc(C#N)cnn67)cc5NC(C)C)s4)CC3)CC2)C(C)(C)C)cc1 (stereo partly shown) | 78
CC(C)Nc1cc(-c2ccc3cc(C#N)cnn23)ncc1-c1nnc(N2CCN(C(=O)C3CCN(C[C@H]4CCN(c5ccc6c(c5)C(=O)N(C5CCC(=O)NC5=O)C6=O)C4)CC3)CC2)s1 (stereo partly shown) | 92
CC(C)Nc1cc(-c2ccc3cc(C#N)cnn23)ncc1-c1nnc(N2CCN(C(=O)CCN3CCN(c4ccc5c(c4)C(=O)N(C4CCC(=O)NC4=O)C5=O)CC3)CC2)s1 (stereo not shown) | 99
CC(C)Nc1cc(-c2ccc3cc(C#N)cnn23)ncc1-c1nnc([C@H]2CC[C@H](NC(=O)CCOCCOCCOCCNc3cccc4c3C(=O)N(C3CCC(=O)NC3=O)C4=O)CC2)s1 (stereo partly shown) | 97
Cc1ncsc1-c1ccc([C@H](C)NC(=O)[C@@H]2C[C@@H](O)CN2C(=O)[C@@H](NC(=O)CCCCCCCCCC(=O)N2CCN(c3nnc(-c4cnc(-c5ccc6cc(C#N)cnn56)cc4NC(C)C)s3)CC2)C(C)(C)C)cc1 | 34
Cc1ncsc1-c1ccc([C@H](C)NC(=O)[C@@H]2C[C@@H](O)CN2C(=O)[C@@H](NC(=O)CCC(=O)N2CCN(c3nnc(-c4cnc(-c5ccc6cc(C#N)cnn56)cc4NC(C)C)s3)CC2)C(C)(C)C)cc1 | 53

# input Respond only with Dmax recorded for "Cc1ncsc1-c1ccc(CNC(=O)[C@@H]2C[C@@H](O)CN2C(=O)[C@@H](NC(=O)C2(F)CC2)C(C)(C)C)c(OCCCCCCCC(=O)N2CCN(c3nnc(-c4cnc(-c5ccc6cc(C#N)cnn56)cc4NC(C)C)s3)CC2)c1"
# output 78

# input Specify measured Dmax for CNc1cc(-c2ccc3cc(C#N)cnn23)ncc1-c1nnc([C@H]2CC[C@H](NC(=O)CCOCCOCCOCCNc3cccc4c3C(=O)N(C3CCC(=O)NC3=O)C4=O)CC2)s1 (stereo partly shown) .
# output 68

# input Please list Dmax recorded for the compound CNc1cc(-c2ccc3cc(C#N)cnn23)ncc1-c1nnc([C@H]2CC[C@H](NC(=O)[C@H]3C[C@@H](OCCNc4cccc5c4C(=O)N(C4CCC(=O)NC4=O)C5=O)C3)CC2)s1 (stereo partly shown)
# output 98

# input Identify Dmax associated with the compound "Cc1ncsc1-c1ccc(CNC(=O)[C@@H]2C[C@@H](O)CN2C(=O)[C@@H](NC(=O)C2(F)CC2)C(C)(C)C)c(OCCOCCOCCOCCOCCOCCC(=O)N2CCN(c3nnc(-c4cnc(-c5ccc6cc(C#N)cnn56)cc4NC(C)C)s3)CC2)c1"
# output 119

# input Answer with reported Dmax of CC(C)Nc1cc(-c2ccc3cc(C#N)cnn23)ncc1-c1nnc(N2CCN(Cc3ccc4c(c3)C(=O)N(C3CCC(=O)NC3=O)C4=O)CC2)s1 (stereo not shown)
# output 29

# input Supply recorded Dmax for "CNc1cc(-c2ccc3cc(C#N)cnn23)ncc1-c1nnc([C@H]2CC[C@H](NC(=O)CCOCCC(=O)N[C@H](C(=O)N3C[C@H](O)C[C@H]3C(=O)N[C@@H](C)c3ccc(-c4scnc4C)cc3)C(C)(C)C)CC2)s1" here.
# output 117

# input Quick one: give measured Dmax for CC(C)Nc1cc(-c2ccc3cc(C#N)cnn23)ncc1-c1nnc(N2CCN(C(=O)CN3CCC4(CC3)CN(c3ccc5c(c3)C(=O)N(C3CCC(=O)NC3=O)C5=O)C4)CC2)s1 (stereo not shown)
# output 81
